Entry source: the supplement of paper PMC10567573

Listed below: protein stability index values for each entry.
B1: CFHR2 (parent)
chain: FVENGHSESSGQTHLEGDTVQIIC

Variants of: B1
ASSAY_SUMMARY: protein stability index of a GFP-peptide fusion (GPS, HEK-293T) (PSI 1-6); higher = more stable;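 note: lentivirally expressed fusions sorted by FACS into six bins by GFP to DsRed ratio, PSI derived from sequencing read proportions per bin multiplied by bin number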
STATED_CONDITIONS: c terminus: a fixed tail appended
MEASURE: protein stability index

    mutation_id                  measure  data_value
 0         E16G  protein stability index        2.01
 1         G11E  protein stability index        3.32
 2         T19S  protein stability index        3.21
 3          F1S  protein stability index        4.14
 4          H6Y  protein stability index        1.93
 5          E8N  protein stability index        2.18
 6         E16M  protein stability index        2.14
 7         G17I  protein stability index        2.05
 8         H14A  protein stability index        3.11
 9          H6V  protein stability index        2.74
10          E3S  protein stability index        2.12
11         I23T  protein stability index        3.88
12          S7E  protein stability index        3.87
13          V2A  protein stability index           4
14         V20H  protein stability index        3.41
15         V20N  protein stability index        3.66
16         I22H  protein stability index        3.58
17         D18W  protein stability index        1.62
18          E3R  protein stability index        1.67
19          N4P  protein stability index        2.53
20         T19F  protein stability index        2.66
21          E8M  protein stability index        1.57
22         C24E  protein stability index        3.88
23         H14Y  protein stability index        2.52
24          E3T  protein stability index        2.23
25          S9C  protein stability index        2.02
26          S7I  protein stability index        2.42
27         T13S  protein stability index        2.95
28         C24N  protein stability index        3.42
29         L15V  protein stability index        2.99
30         I22F  protein stability index        3.03
31         V20I  protein stability index        2.19
32         C24I  protein stability index        2.49
